Test system: TbCBP66* R348E (Trypanosoma brucei)
Test: fluorescence polarization
Details: EMSA: 20 mM HEPES pH 7.5, 50 mM NaCl, 5 mM MgCl2, Tween (0.05% in RNA buffer), RNA stock 50 nM mixed 1:1, 30 min on ice, 6% native PAGE 4 C; FP: same buffer, 0.
RECORDED_METRIC: pKd
Hey, just a heads up that pKd is the negative log base 10 of the concentration in molar.

[ask] Entry AACUAACGCUAUUAUUAGAACAGUUUCUGUACUAUAUUG [OH-SLe 3'-6FAM (39 nt SL RNA exon, FP)] : reported pKd = ?
[reply] 5.01

FYI, the data here is from paper PMC11735809.
